biological target: human Cereblon WT GST-tagged protein (Homo sapiens, UniProt Q96SW2); construct: purchased CISBIO 64BDCRBNPEH; test: CRBN binding, HTRF CEREBLON BINDING kit
Sequence (Q96SW2 whole entry): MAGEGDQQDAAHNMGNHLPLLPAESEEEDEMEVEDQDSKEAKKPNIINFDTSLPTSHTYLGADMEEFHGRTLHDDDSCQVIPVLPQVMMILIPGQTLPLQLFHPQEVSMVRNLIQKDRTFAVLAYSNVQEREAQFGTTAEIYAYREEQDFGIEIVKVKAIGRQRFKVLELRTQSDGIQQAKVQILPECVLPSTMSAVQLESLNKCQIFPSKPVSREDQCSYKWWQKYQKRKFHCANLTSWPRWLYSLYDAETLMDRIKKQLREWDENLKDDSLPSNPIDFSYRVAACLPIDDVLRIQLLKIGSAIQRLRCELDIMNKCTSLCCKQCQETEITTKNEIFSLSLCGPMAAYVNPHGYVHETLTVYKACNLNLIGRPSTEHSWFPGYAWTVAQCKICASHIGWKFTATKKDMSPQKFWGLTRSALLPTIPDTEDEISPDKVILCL
ASSAY ENDPOINT: IC50

| COMPOUND | RECORDED VALUE |
| --- | --- |
| C=CC(=O)Nc1cc(Nc2nccc(-c3cn(C)c4ccccc34)n2)c(OC)cc1N(C)CCN(C)C [osimertinib, reference compound] | > 10 µM |

----------
biological target: human Cereblon WT GST-tagged protein (Homo sapiens, UniProt Q96SW2); construct: purchased CISBIO 64BDCRBNPEH; assay: CRBN binding, HTRF CEREBLON BINDING kit; conditions: CRBN binding, HTRF CEREBLON BINDING kit

| MOLECULE | IC50 |
| --- | --- |
| COc1cc(N2CCN(Cc3cncc(C4CCC(=O)NC4=O)c3)CC2)ccc1Nc1ncc(Cl)c(Nc2ccccc2P(C)(C)=O)n1 (stereo not drawn) | < 0.5 µM |
| CN(C)C(=O)c1cc2cnc(Nc3ccc(N4CCC(N(C)Cc5ccc(N6CCC(=O)NC6=O)cn5)CC4)cn3)nc2n1C1CCCC1 | 0.5 to 1 µM |
| Cn1cc(-c2cc(S(C)(=O)=O)ccc2OCc2ccc(C3CCC(=O)NC3=O)cc2)c2cc[nH]c2c1=O (stereo not drawn) | < 0.5 µM |
| CC(C)(O)c1cc2nc(C3CCN(Cc4ccc(N5CCC(=O)NC5=O)cn4)CC3)oc2cc1NC(=O)c1cccc(C(F)(F)F)n1 | 1 to 1.9 µM |
| O=C1CCN(c2cccc(CN3CCN(c4ccc(-c5cc(F)c6c(c5)C(=O)N(C(C(=O)Nc5nccs5)c5ncn7c5CCC7)C6)cc4)CC3)c2)C(=O)N1 (stereo not drawn) | < 0.5 µM |
| Cc1ccc(-c2c(C)noc2C)cc1N(CC1CCN(Cc2ccc(N3CCC(=O)NC3=O)c(F)c2)CC1)c1ccc(C2(C#N)CC2)cc1 | 1 to 1.9 µM |

----------
As shown below, each of these compounds has a reported IC50 value.
biological target: human Cereblon WT GST-tagged protein (Homo sapiens, UniProt Q96SW2); construct: purchased CISBIO 64BDCRBNPEH; assay: CRBN binding, HTRF CEREBLON BINDING kit; details: CRBN binding, HTRF CEREBLON BINDING kit

| COMPOUND | IC50 |
| --- | --- |
| COc1cc2nn(C3CCN(Cc4ccc(N5CCC(=O)NC5=O)cc4F)CC3)cc2cc1NC(=O)c1cccc(C(F)(F)F)c1 | 1 to 1.9 µM |
| COc1cc(N2CCC(N3CCN(Cc4cncc(C5CCC(=O)NC5=O)c4)CC3)CC2)ccc1Nc1ncc(Cl)c(Nc2ccccc2P(C)(C)=O)n1 (stereo not shown) | 1 to 1.9 µM |
| CC(=O)c1c(C)c2cnc(Nc3ccc(N4CCN(Cc5ccc(N6CCC(=O)NC6=O)cn5)CC4)cn3)nc2n(C2CCCC2)c1=O | 1 to 1.9 µM |
| NC(=O)c1ncc(N2CCCCC2)nc1Nc1ccc(C2CCN(Cc3cccc(N4CCC(=O)NC4=O)c3)CC2)cc1 | 0.5 to 1 µM |
| Cn1cc(-c2cc(S(C)(=O)=O)ccc2OCc2ccc(N3CCC(=O)NC3=O)cn2)c2cc[nH]c2c1=O | 1 to 1.9 µM |
| COc1cc(N2CCC(N(C)Cc3ccc(N4CCC(=O)NC4=O)cn3)CC2)ccc1Nc1ncc(Cl)c(Nc2ccccc2P(C)(C)=O)n1 | 1 to 1.9 µM |
| CC(C)(O)c1cc2nn(C3CCN(Cc4ccc(C5CCC(=O)NC5=O)cc4)CC3)cc2cc1NC(=O)c1cccc(C(F)(F)F)n1 (stereo not shown) | 0.5 to 1 µM |
| O=C1CCC(Nc2cccc(CN3CCN(C4CCN(c5ccc(Nc6ncc7nc(Nc8ccccc8)n(C8CCCC8)c7n6)cc5)CC4)CC3)c2)C(=O)N1 (stereo not shown) | 0.5 to 1 µM |
| COc1cc2nn(C3CCN(Cc4ccc(C5CCC(=O)NC5=O)cc4)CC3)cc2cc1NC(=O)c1cccc(C(F)(F)F)n1 (stereo not shown) | 0.5 to 1 µM |
| O=C1CCN(c2cccc(CN3C4CCC3CN(c3ccc(-c5cc(F)c6c(c5)C(=O)N(C(C(=O)Nc5nccs5)c5ncn7c5CCC7)C6)cc3)C4)c2)C(=O)N1 (stereo not shown) | < 0.5 µM |
| O=C1CCN(c2ccc(CN3CCN(c4ccc(-c5cc(F)c6c(c5)C(=O)N(C(C(=O)Nc5nccs5)c5ncn7c5CCC7)C6)cc4)CC3)cc2)C(=O)N1 (stereo not shown) | 0.5 to 1 µM |
| COc1cc(N2CCC(N(C)Cc3cncc(C4CCC(=O)NC4=O)c3)CC2)ccc1Nc1ncc(Cl)c(Nc2ccccc2P(C)(C)=O)n1 (stereo not shown) | 0.5 to 1 µM |
| Cc1nc2c(F)cc(-c3nc(Nc4ccc(N5CCC(N6CCN(Cc7cccc(N8CCC(=O)NC8=O)c7)CC6)CC5)cn4)ncc3F)cc2n1C(C)C | 0.5 to 1 µM |
